assay: Therapeutic index, IC50 for H9 cells to EC50 for HIV; assay type: cell-based; conditions: human, read-out: Ratio IC50/EC50
ASSAY_ENDPOINT: selectivity ratio

Consider the following illustrative entries.
Cc1cn([C@H]2C[C@H](N=[N+]=[N-])[C@@H](CO)O2)c(=O)[nH]c1=O [ZIDOVUDINE] ... 36500
Cc1cc(=O)oc2c3c(ccc12)CC[C@H](OC(=O)C12CCC(C)(C(=O)O1)C2(C)C)[C@@H]3OC(=O)C12CCC(C)(C(=O)O1)C2(C)C (some centres undefined) ... 659
Cc1cc(=O)oc2c3c(ccc12)CC(C)(C)[C@H](OC(=O)C12CCC(C)(C(=O)O1)C2(C)C)[C@@H]3OC(=O)C12CCC(C)(C(=O)O1)C2(C)C (some centres undefined) ... > 100

API: the following record is the query input.
Query: // query selectivity ratio value for entry CC12CCC(C(=O)O[C@H]3CCc4ccc5ccc(=O)oc5c4[C@H]3OC(=O)C34CCC(C)(C(=O)O3)C4(C)C)(OC1=O)C2(C)C (some centres undefined)
Result: 841

###

system: Human immunodeficiency virus; assay: Antiviral activity against HIV replication in H9 cells; type: functional, organism-based; details: Human immunodeficiency virus 1, H9
ASSAY_ENDPOINT: pEC50
Schema: pEC50 number; meaning minus log10 of the concentration expressed in molar units.

Cc1cn([C@H]2C[C@H](N=[N+]=[N-])[C@@H](CO)O2)c(=O)[nH]c1=O ... 7.86
CC12CCC(C(=O)O[C@H]3CCc4ccc5ccc(=O)oc5c4[C@H]3OC(=O)C34CCC(C)(C(=O)O3)C4(C)C)(OC1=O)C2(C)C (some centres undefined) ... 7.17

Turning now to a further compound:
Query: Provide the documented pEC50 with Human immunodeficiency virus as the system for Cc1cc(=O)oc2c3c(ccc12)CC[C@H](OC(=O)C12CCC(C)(C(=O)O1)C2(C)C)[C@@H]3OC(=O)C12CCC(C)(C(=O)O1)C2(C)C (some centres undefined)
Result: 7.08

Source of measurements: ChEMBL document CHEMBL1140017
